Exercise: for every item that follows, state its recorded unfolding free energy.
B1: Ribonuclease, P00648 (parent)
chain: MMKMEGIALKKRLSWISVCLLVLVSAAGMLFSTAAKTETSSHKAHTEAQVINTFDGVADYLQTYHKLPDNYITKSEAQALGWVASKGNLADVAPGKSIGGDIFSNREGKLPGKSGRTWREADINYTSGFRNSDRILYSSDWLIYKTTDHYQTFTKIR

variants of: B1; conditions: Bacillus amyloliquefaciens; pH 9; 25 °C; Urea; Fluorescence; MES/Tris 150 mM/150 mM/; NaCl 1 M; structure 1BNI; whole UniProt chain shown
Answers are plain numbers, in kcal/mol.

In the examples that follow, each entry is paired with its recorded unfolding free energy.
>>> print(df.to_string())
   variantspec  numericresult
0        W141Y           8.42
1         H65G           9.92
2        W141F           8.81
3   H65G W141L           9.72

In the following, a different variant is considered.
Prompt: Which unfolding free energy value is on record for W141L ?
Response: 8.75

Numbers sourced from FireProtDB (doi:10.1016/0022-2836(92)90560-7).
